# Tested on: NCI-H1341 complex spheroids, percent test/control
# Test protocol: Anticancer human tumor NCI-H1341 cell line growth inhibition [AhR];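 note: spheroids exposed to agents for seven days before readout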
# Condition info: second compound 0.316 µM; first compound 0.001 µM; stronger effect = lower value
One threshold, 90%, splits the recorded viability, T/C values: lower ones are 1, equal or higher ones are -1.

Below 90% on viability, T/C? Entry Cn1ncnc1C1c2n[nH]c(=O)c3cc(F)cc(c23)NC1c1ccc(F)cc1 (stereo unspecified) + Cc1ccccc1N=Nc1ccc(NC(=O)c2ccnn2C)c(C)c1 -1

Just wondering, is viability, T/C of Cn1ncnc1C1c2n[nH]c(=O)c3cc(F)cc(c23)NC1c1ccc(F)cc1 (stereo unspecified) + Cc1cncc(-c2nc(NCCc3c[nH]c4ccccc34)c3ncn(C(C)C)c3n2)c1 below 90%? 1

Hello, is viability, T/C of the following compound strictly smaller than 90%? CC[C@@]1(O)C(=O)OCc2c1cc1n(c2=O)Cc2cc3c(CN(C)C)c(O)ccc3nc2-1 + CC(CO)NC(=O)c1cc(-c2ccc(Cl)cc2)nn(-c2cnn(C)c2)c1=O 1

Just wondering, is viability, T/C of CC[C@@]1(O)C(=O)OCc2c1cc1n(c2=O)Cc2cc3c(CN(C)C)c(O)ccc3nc2-1 + Cc1cncc(-c2nc(NCCc3c[nH]c4ccccc34)c3ncn(C(C)C)c3n2)c1 below 90%? 1

# strict comparison: is reported viability, T/C < 90%? input = CC[C@@]1(O)C(=O)OCc2c1cc1n(c2=O)Cc2cc3c(CN(C)C)c(O)ccc3nc2-1 + Cc1ccccc1N=Nc1ccc(NC(=O)c2ccnn2C)c(C)c1 1

Is 90% strictly greater than the compound's reported viability, T/C? compound: Cn1ncnc1C1c2n[nH]c(=O)c3cc(F)cc(c23)NC1c1ccc(F)cc1 (stereo unspecified) + CC(CO)NC(=O)c1cc(-c2ccc(Cl)cc2)nn(-c2cnn(C)c2)c1=O -1

====

Give IC50 for every item shown.
# Test system: NCI-H1341 complex spheroids, percent test/control
# Test protocol: Anticancer human tumor NCI-H1341 cell line growth inhibition [AhR];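 note: spheroids exposed to agents for seven days before readout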
# Condition info: curve of first compound; second compound 10 µM

For the compound shown here, Nc1ccn(C2OC(CO)C(O)C2(F)F)c(=O)n1 (centres undefined) + Cc1ccccc1N=Nc1ccc(NC(=O)c2ccnn2C)c(C)c1 , give the reported IC50. < 31.6 nM

Quick one: IC50 of Cn1ncnc1C1c2n[nH]c(=O)c3cc(F)cc(c23)NC1c1ccc(F)cc1 (centres undefined) + CC(CO)NC(=O)c1cc(-c2ccc(Cl)cc2)nn(-c2cnn(C)c2)c1=O ? > 100 nM

What does the record list as IC50 for Nc1ccccc1NC(=O)c1ccc(CNC(=O)OCc2cccnc2)cc1 + CC(CO)NC(=O)c1cc(-c2ccc(Cl)cc2)nn(-c2cnn(C)c2)c1=O ? 52.3 nM

Please give the measured IC50 for this compound: Cn1ncnc1C1c2n[nH]c(=O)c3cc(F)cc(c23)NC1c1ccc(F)cc1 (centres undefined) + Cc1cncc(-c2nc(NCCc3c[nH]c4ccccc34)c3ncn(C(C)C)c3n2)c1 < 0.316 nM

====

Record form. Attribute: viability, T/C. Fill in for each entry.
# Test system: NCI-H1341 complex spheroids, percent test/control
# Test protocol: Anticancer human tumor NCI-H1341 cell line growth inhibition [AhR];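 note: spheroids exposed to agents for seven days before readout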
# Condition info: second compound 3.16 µM; first compound 0.0316 µM; stronger effect = lower value
Respond with the bare value in %.

What value of measured viability, T/C is listed for COc1cc(Nc2ncc3c(n2)-c2ccc(Cl)cc2C(c2c(F)cccc2OC)=NC3)ccc1C(=O)O + Cc1cncc(-c2nc(NCCc3c[nH]c4ccccc34)c3ncn(C(C)C)c3n2)c1 ? 42.2

Reported viability, T/C for CC1COCCN1c1cc(-c2ccnn2C)c2ccnc(-c3ccn[nH]3)c2n1 (stereo not drawn) + Cc1ccccc1N=Nc1ccc(NC(=O)c2ccnn2C)c(C)c1 : what is it? 55.1

Query (molecule): COc1ccc([C@@H](O)c2cc(-c3ncnc4cc(N5CCOCC5)ccc34)c(F)cc2Cl)nn1 + Cc1cncc(-c2nc(NCCc3c[nH]c4ccccc34)c3ncn(C(C)C)c3n2)c1 ; field requested: viability, T/C 71.8

Which viability, T/C reading was recorded for the molecule Nc1ccccc1NC(=O)c1ccc(CNC(=O)OCc2cccnc2)cc1 + Cc1ccccc1N=Nc1ccc(NC(=O)c2ccnn2C)c(C)c1 ? 85.9

Which viability, T/C value is on record for O=C(c1cc(Cc2n[nH]c(=O)c3ccccc23)ccc1F)N1CCN(C(=O)C2CC2)CC1 + CC(CO)NC(=O)c1cc(-c2ccc(Cl)cc2)nn(-c2cnn(C)c2)c1=O ? 94.4

What value of viability, T/C has been reported for the following molecule? Nc1ccn(C2OC(CO)C(O)C2(F)F)c(=O)n1 (stereo not drawn) + Cc1ccccc1N=Nc1ccc(NC(=O)c2ccnn2C)c(C)c1 45

What viability, T/C value was documented for this molecule, CC1COCCN1c1cc(C2(S(C)(=N)=O)CC2)nc(-c2ccnc3[nH]ccc23)n1 (stereo not drawn) + Cc1cncc(-c2nc(NCCc3c[nH]c4ccccc34)c3ncn(C(C)C)c3n2)c1 ? 54.7

Need viability, T/C, item Cn1ncnc1C1c2n[nH]c(=O)c3cc(F)cc(c23)NC1c1ccc(F)cc1 (stereo not drawn) + Cc1cncc(-c2nc(NCCc3c[nH]c4ccccc34)c3ncn(C(C)C)c3n2)c1 77.2

Dear colleague, I am looking for the recorded viability, T/C of the following molecule: COc1cc(C2c3cc4c(cc3C(OC3OC5COC(C)OC5C(O)C3O)C3COC(=O)C23)OCO4)cc(OC)c1O (stereo not drawn) + Cc1ccccc1N=Nc1ccc(NC(=O)c2ccnn2C)c(C)c1 66.6

Which viability, T/C value belongs to CC1COCCN1c1cc(-c2ccnn2C)c2ccnc(-c3ccn[nH]3)c2n1 (stereo not drawn) + Cc1cncc(-c2nc(NCCc3c[nH]c4ccccc34)c3ncn(C(C)C)c3n2)c1 ? 50

Can you share its viability, T/C? I mean this molecule: CC1COCCN1c1cc(C2(S(C)(=N)=O)CC2)nc(-c2ccnc3[nH]ccc23)n1 (stereo not drawn) + CC(CO)NC(=O)c1cc(-c2ccc(Cl)cc2)nn(-c2cnn(C)c2)c1=O 95.8

Quick one: viability, T/C for O=C(c1cc(Cc2n[nH]c(=O)c3ccccc23)ccc1F)N1CCN(C(=O)C2CC2)CC1 + Cc1ccccc1N=Nc1ccc(NC(=O)c2ccnn2C)c(C)c1 ? 67.6

Which viability, T/C value belongs to Cn1ncnc1C1c2n[nH]c(=O)c3cc(F)cc(c23)NC1c1ccc(F)cc1 (stereo not drawn) + Cc1ccccc1N=Nc1ccc(NC(=O)c2ccnn2C)c(C)c1 ? 70.5

# input molecule: COc1cc(Nc2ncc3c(n2)-c2ccc(Cl)cc2C(c2c(F)cccc2OC)=NC3)ccc1C(=O)O + CC(CO)NC(=O)c1cc(-c2ccc(Cl)cc2)nn(-c2cnn(C)c2)c1=O ; wanted: its viability, T/C 38.4

Report viability, T/C for O=C(c1cc(Cc2n[nH]c(=O)c3ccccc23)ccc1F)N1CCN(C(=O)C2CC2)CC1 + Cc1cncc(-c2nc(NCCc3c[nH]c4ccccc34)c3ncn(C(C)C)c3n2)c1 please. 57.5

I would be grateful if you could share the reported viability, T/C for CC(C)c1c(-c2ccccc2)nc2c(C#N)c[nH]n2c1=O + Cc1cncc(-c2nc(NCCc3c[nH]c4ccccc34)c3ncn(C(C)C)c3n2)c1 . 79.9

Return reported viability, T/C; argument: COc1cc(Nc2ncc3c(n2)-c2ccc(Cl)cc2C(c2c(F)cccc2OC)=NC3)ccc1C(=O)O + Cc1ccccc1N=Nc1ccc(NC(=O)c2ccnn2C)c(C)c1 47.7

For COc1cc(C2c3cc4c(cc3C(OC3OC5COC(C)OC5C(O)C3O)C3COC(=O)C23)OCO4)cc(OC)c1O (stereo not drawn) + CC(CO)NC(=O)c1cc(-c2ccc(Cl)cc2)nn(-c2cnn(C)c2)c1=O , what is its reported viability, T/C? 74.6

If you can, please state the reported viability, T/C value of CC1(C)CCC(CN2CCN(c3ccc(C(=O)NS(=O)(=O)c4ccc(NCC5CCOCC5)c([N+](=O)[O-])c4)c(Oc4cnc5[nH]ccc5c4)c3)CC2)=C(c2ccc(Cl)cc2)C1 + Cc1cncc(-c2nc(NCCc3c[nH]c4ccccc34)c3ncn(C(C)C)c3n2)c1 . 70.6

Please look up its viability, T/C: CC1COCCN1c1cc(-c2ccnn2C)c2ccnc(-c3ccn[nH]3)c2n1 (stereo not drawn) + CC(CO)NC(=O)c1cc(-c2ccc(Cl)cc2)nn(-c2cnn(C)c2)c1=O 43.1

Which viability, T/C value is on record for Nc1ccccc1NC(=O)c1ccc(CNC(=O)OCc2cccnc2)cc1 + CC(CO)NC(=O)c1cc(-c2ccc(Cl)cc2)nn(-c2cnn(C)c2)c1=O ? 63.4

Which value of viability, T/C has been reported for CC1COCCN1c1cc(C2(S(C)(=N)=O)CC2)nc(-c2ccnc3[nH]ccc23)n1 (stereo not drawn) + Cc1ccccc1N=Nc1ccc(NC(=O)c2ccnn2C)c(C)c1 in the records? 77.9

# query: viability, T/C of entry CC[C@@]1(O)C(=O)OCc2c1cc1n(c2=O)Cc2cc3c(CN(C)C)c(O)ccc3nc2-1 + Cc1ccccc1N=Nc1ccc(NC(=O)c2ccnn2C)c(C)c1 45.2
